measurement-kind: melting point

Challenge: Report melting point for O=C1NN=C(C2CC2)C1=Cc1c[nH]c2ccccc12 [Example 256]
Response given: 300 to 305 °C

Challenge: Report melting point for Cc1[nH]c(C=C2C(=O)NN=C2c2cnccn2)c(C)c1CN.O=C(O)/C=C\C(=O)O [Example 179]
Response given: 205 to 208 °C

Challenge: Report melting point for CN(C)C1=NNC(=O)C1=Cc1c[nH]c2ccccc12 [Example 270]
Response given: 258 to 260 °C

Challenge: Report melting point for Cc1cc(C)c(C=C2C(=O)NN=C2c2ccco2)[nH]1 [Example 127]
Response given: 235 to 237 °C
